Test: Acute toxicity on mice
Settings: mouse, in vivo, po, read-out: Acute toxicity on mice ED50
Give measured LD50 for each item. Keep answers brief.
One number for each entry, in mg/kg.

{"Molecule": "COCC1CN=C(c2ccccc2Cl)c2cc(Br)ccc2N1C (centres unmarked) [compound 1]", "Recorded Result": 2390}

Please find the next molecule below.
Q) Sample COCC1CN=C(c2ccccc2Cl)c2cc(Cl)ccc2N1C (centres unmarked) [compound 2] — what was its LD50?
A) 1470
